Provenance of the data: patent US10285989B2

Entries and their measured Ki follow.
# MEASURED_TARGET: UniProt O00408
# Sequence (O00408 other isoform, or with tags, fused parts or gaps): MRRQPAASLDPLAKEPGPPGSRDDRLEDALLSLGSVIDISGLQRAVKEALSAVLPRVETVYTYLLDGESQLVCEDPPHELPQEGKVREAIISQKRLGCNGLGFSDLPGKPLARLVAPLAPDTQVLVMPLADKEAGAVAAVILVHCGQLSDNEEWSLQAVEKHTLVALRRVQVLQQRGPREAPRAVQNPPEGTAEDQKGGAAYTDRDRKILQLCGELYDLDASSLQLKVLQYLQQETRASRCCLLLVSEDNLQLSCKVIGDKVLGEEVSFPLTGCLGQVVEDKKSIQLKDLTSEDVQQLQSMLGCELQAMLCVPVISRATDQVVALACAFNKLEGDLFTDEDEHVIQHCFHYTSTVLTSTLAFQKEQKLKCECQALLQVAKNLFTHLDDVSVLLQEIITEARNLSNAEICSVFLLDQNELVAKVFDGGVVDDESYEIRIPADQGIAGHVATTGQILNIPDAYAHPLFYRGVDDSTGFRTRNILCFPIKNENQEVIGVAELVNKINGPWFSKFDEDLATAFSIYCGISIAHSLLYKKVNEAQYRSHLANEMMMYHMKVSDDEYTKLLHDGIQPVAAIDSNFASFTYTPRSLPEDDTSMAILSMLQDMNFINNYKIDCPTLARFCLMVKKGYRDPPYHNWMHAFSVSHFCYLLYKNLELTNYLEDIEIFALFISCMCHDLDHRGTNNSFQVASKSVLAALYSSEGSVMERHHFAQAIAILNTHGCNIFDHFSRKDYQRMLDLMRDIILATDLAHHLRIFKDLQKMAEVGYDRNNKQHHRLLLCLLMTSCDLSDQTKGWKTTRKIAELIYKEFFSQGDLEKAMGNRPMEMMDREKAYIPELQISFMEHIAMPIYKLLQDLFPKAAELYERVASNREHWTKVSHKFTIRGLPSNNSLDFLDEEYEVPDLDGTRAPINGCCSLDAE
# TEST_NAME: PDE2 IMAP FP inhibition assay, human PDE2A1 (selectivity panel format)
# Type: biochemical
# RECORDED_CONDITIONS: Lab B; read-out: Human PDE2 Ki (nM) - Lab B
Hi, when you answer, please include the unit after the number. Thanks!

[
  {
    "COMPOUND": "CC(C)[C@@H](NC(=O)c1cc(=O)[nH]c(N(C)C)n1)c1ccc(C2CC2)c(F)c1",
    "Ki": "0.36 nM"
  },
  {
    "COMPOUND": "CN(C)c1nc(C(=O)NC2(c3ccc(OC(C)(C)C)cc3)CC2)cc(=O)[nH]1",
    "Ki": "27 nM"
  },
  {
    "COMPOUND": "C[C@@H](NC(=O)c1cc(=O)[nH]c(N(C)C)n1)c1ccc(S(F)(F)(F)(F)F)cc1F",
    "Ki": "749 nM"
  },
  {
    "COMPOUND": "CN(C)c1nc(C(=O)NC(c2ccccc2)c2ccc(C(F)(F)F)cc2)cc(=O)[nH]1 (stereo not shown)",
    "Ki": "81 nM"
  },
  {
    "COMPOUND": "CC(C)[C@@H](NC(=O)c1cc(=O)[nH]c(N(C)C)n1)c1ccc(C(F)F)c(F)c1",
    "Ki": "2.2 nM"
  }
]

-- ask For the compound shown here, CCC(C)(NC(=O)c1cc(=O)[nH]c(N(C)C)n1)c1ccc(C(F)(F)F)cc1F (single isomer, unassigned) [Example 129] , give the reported Ki.
-- reply 5.5 nM

-- ask Then `CN(C)c1nc(C(=O)N[C@@H](c2ccc(C(F)F)c(F)c2)C2CC2)cc(=O)[nH]1` ?
-- reply 5 nM
